- system: recombinant autotaxin (Homo sapiens, UniProt Q13822)
- Construct: made in house; host or cells: Hi5 insect cells (baculovirus)
- assayName: Autotaxin test (enzyme test), Amplex Red fluorescence
- Format: biochemical
- appliedConditions: substrate LPC 75 μM, Amplex Red detection, read-out: IC50 (autotaxin inhibition, enzyme test)
pIC50: −log10 of the molar value.
The following compounds are shown together with reported pIC50 values.

Some compounds with recorded pIC50:
{"moleculeSmiles": "Cc1c(Cl)cccc1NC(=O)Nc1[nH]c(Cc2ccc(C(=O)O)cc2)nc1C(N)=O", "result": "5.00 to 6.00"}
{"moleculeSmiles": "NC(=O)c1nc(Cc2ccc(OCC(=O)O)cc2)[nH]c1NC(=O)Nc1cc(C(F)(F)F)ccc1F", "result": "< 5.00"}
{"moleculeSmiles": "NC(=O)c1nc(Cc2ccc(C(=O)O)s2)[nH]c1NC(=O)Nc1cccc(C(F)(F)F)c1", "result": "< 5.00"}
{"moleculeSmiles": "CCCCc1ccc(NC(=O)Nc2[nH]c(Cc3ccc(C(=O)N(CCCC)CCCC)o3)nc2C(N)=O)cc1", "result": "< 5.00"}

Switching to the query record.
Challenge: For `Cc1ccccc1NC(=O)Nc1[nH]c(Cc2ccc(C(=O)O)s2)nc1C(N)=O` , what is its reported pIC50?
Response given: < 5.00

###

- system: recombinant autotaxin (Homo sapiens, UniProt Q13822)
- assayName: Autotaxin test (enzyme test), Amplex Red fluorescence
- appliedConditions: substrate LPC 75 μM, Amplex Red detection, read-out: IC50 (autotaxin inhibition, enzyme test)
measuredProperty: IC50

Some compounds with recorded IC50:
{"compound": "CC(C)c1ccc(NC(=O)Nc2[nH]c(Cc3ccc(C(=O)O)s3)nc2C(N)=O)cc1 [Compound A68]", "IC50": "1 to 10 µM"}
{"compound": "COC(=O)c1ccc(Cc2nc(C(N)=O)c(NC(=O)Nc3ccc(C(F)(F)F)cc3)[nH]2)cc1 [Compound A98]", "IC50": "> 10 µM"}
{"compound": "NC(=O)c1nc(CN2C(=O)c3ccccc3C2=O)[nH]c1NC(=O)Nc1ccc(Cl)cc1 [Compound B78]", "IC50": "> 10 µM"}

Switching to the query record.
Challenge: For Cc1cccc(C)c1NC(=O)Nc1[nH]c(-c2ccc(OCC(=O)O)cc2)nc1C(N)=O [Compound A48] , what is its reported IC50?
Response given: > 10 µM
